# METHOD SUMMARY: Measurement of maximum absorption wavelength, maximum fluorescence wavelength and fluorescence quantum yield in solvents
# Format: physicochemical
# CONDITION INFO: in MeCN
The entries below are paired with their reported Φf (fluorescence quantum yield).
QUANTITY MEASURED: Φf (fluorescence quantum yield)

> print(dat)
                                   compound  measurement
1  CCN(CC)c1ccc2cc3cc(-c4nc5ccccc5s4)c(=O)oc3cc2c1 [PC6S]         0.80
2  CCN(CC)c1ccc2cc3cc(-c4nc5ccccc5[nH]4)c(=O)oc3cc2c1 [PC6NH]         0.82
3  CCN(CC)c1ccc2cc3cc(-c4nc5ccccc5n4C)c(=O)oc3cc2c1 [PC6NMe]         0.77
4  CCN(CC)c1ccc2cc3cc(-c4nc5ccccc5o4)c(=O)oc3cc2c1 [PC6O]         0.80

====

The entries below are paired with their reported λmax abs (maximum absorption wavelength).
# METHOD SUMMARY: Measurement of maximum absorption wavelength, maximum fluorescence wavelength and fluorescence quantum yield in solvents
# Assay type: physicochemical
# CONDITION INFO: in Bu2O (dibutyl ether)
QUANTITY MEASURED: λmax abs (maximum absorption wavelength) (nm)

> print(dat)
                                test.smiles                         quantity.measured  measurement
1  CCN(CC)c1ccc2cc3cc(-c4nc5ccccc5[nH]4)c(=O)oc3cc2c1  λmax abs (maximum absorption wavelength)          458
2  CCN(CC)c1ccc2cc3cc(-c4nc5ccccc5o4)c(=O)oc3cc2c1  λmax abs (maximum absorption wavelength)          460
3  CCN(CC)c1ccc2cc3cc(-c4nc5ccccc5n4C)c(=O)oc3cc2c1  λmax abs (maximum absorption wavelength)          438
4  CCN(CC)c1ccc2cc3cc(-c4nc5ccccc5s4)c(=O)oc3cc2c1  λmax abs (maximum absorption wavelength)          468

====

The entries below are paired with their reported τf (fluorescence lifetime).
# METHOD SUMMARY: Measurement of fluorescence lifetime in solvents
# Assay type: physicochemical
# CONDITION INFO: in MeCN
# Method: The fluorescence lifetime (τf) of each compound in each solvent was measured using a compact fluorescence lifetime measurement apparatus (Quntaurus-Tau, manufactured by Hamamatsu Photonics K.K.).
QUANTITY MEASURED: τf (fluorescence lifetime) (ns)

> print(dat)
                                test.smiles           quantity.measured  measurement
1  CCN(CC)c1ccc2cc3cc(-c4nc5ccccc5[nH]4)c(=O)oc3cc2c1  τf (fluorescence lifetime)         3.78
2  CCN(CC)c1ccc2cc3cc(-c4nc5ccccc5s4)c(=O)oc3cc2c1  τf (fluorescence lifetime)         3.72
3  CCN(CC)c1ccc2cc3cc(-c4nc5ccccc5o4)c(=O)oc3cc2c1  τf (fluorescence lifetime)         3.70
4  CCN(CC)c1ccc2cc3cc(-c4nc5ccccc5n4C)c(=O)oc3cc2c1  τf (fluorescence lifetime)         4.08

Taken from patent US12306194B2.
